These data points were gathered from PubChem BioAssay (NCATS).

assay: qHTS Screen of the MIPE 4.0 Collection Against Ewings Sarcoma (EW8) (AID 1259255); settings: EW8 Ewing sarcoma viability, CellTiter-Glo, 48 h; series mostly up to 45.8 µM; further: nearly all actives have a fitted effect of over 35% in size
Results filed as inconclusive are left out. Calls of active or inactive are those of the source. The call rests on the fitted dose curve; in most records, active means well fitted inhibition curve with a large enough effect; inconclusive means small, poorly fitted or top-dose-only effect; inactive means no such curve, though single readings can be large or run the other way.
Outcome Measure: outcome

{"Structure Smiles String": "C[C@]12CC[C@H]3[C@@H](CCC4=CC(=O)CC[C@@]43C)[C@H]1CC[C@H]2O", "Result": "inactive"}
{"Structure Smiles String": "O=[N+]([O-])c1ncc[nH]1", "Result": "inactive"}
{"Structure Smiles String": "c1ccc2c(CN3CCNCC3)cccc2c1", "Result": "inactive"}
